# PROTOCOL DETAILS: Pharmacokinetic profile in mice after oral gavage
# Format: in vivo, mouse
# APPLIED CONDITIONS: mouse; fasted male Hilltop mice, 10 mg/kg oral gavage, plasma; read-out: Cmax
QUANTITY KIND: log10(Cmax) (log10 of the value in ng/mL)
Heads up, the numbers here are log10 of Cmax in ng/mL units.

Below: 3 compounds and their reported log10(Cmax).
N#Cc1ccc(CCNC(=O)[C@@H]2CCCN2c2cc(N3CCC(CCCC(=O)NCCS(=O)(=O)O)CC3)nc(C(F)(F)F)n2)cc1
0.52
O=C(CCCC1CCN(c2cc(N3CCC[C@H]3C(=O)NCCc3ccc(Cl)c(Cl)c3)nc(C(F)(F)F)n2)CC1)NCS(=O)(=O)O
1.77
N#Cc1ccc(CCNC(=O)[C@@H]2CCCN2c2cc(N3CCC(CCCC(=O)NCCS(=O)(=O)O)CC3)cc(C(F)(F)F)n2)cc1
0.00

Prompt: Record request: log10(Cmax) value, item N=C(N)NCCNC(=O)CCCC1CCN(c2cc(N3CCC[C@H]3C(=O)NCCc3ccc(C(F)(F)F)cc3)nc(C(F)(F)F)n2)CC1
Completion: 1.08

Prompt: Please look up its log10(Cmax): N#Cc1ccc(CCNC(=O)[C@@H]2CCN2c2cc(N3CCC(CCCC(=O)NCCOCCNC(=N)N)CC3)nc(C(F)(F)F)n2)cc1
Completion: 1.11

Prompt: Value lookup for log10(Cmax); key = N#Cc1ccc(CCNC(=O)[C@@H]2CCN2c2cc(N3CCC(CCNC(=O)NCCC(=O)O)CC3)nc(C(F)(F)F)n2)cc1
Completion: 0.89

---

# TARGET DESC: UniProtKB Q8TDU6
# Sequence (Q8TDU6 whole entry): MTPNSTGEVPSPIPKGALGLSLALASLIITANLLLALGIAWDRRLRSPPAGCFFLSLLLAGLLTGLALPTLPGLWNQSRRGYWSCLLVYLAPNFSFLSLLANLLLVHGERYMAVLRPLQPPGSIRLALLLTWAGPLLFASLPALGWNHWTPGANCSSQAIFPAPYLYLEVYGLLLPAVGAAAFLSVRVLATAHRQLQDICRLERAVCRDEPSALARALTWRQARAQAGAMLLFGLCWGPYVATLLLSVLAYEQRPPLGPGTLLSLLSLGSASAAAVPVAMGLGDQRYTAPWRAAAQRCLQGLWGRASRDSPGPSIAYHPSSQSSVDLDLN
# PROTOCOL DETAILS: Human TGR5 cAMP production assay (hTGR5-CHO cells, DiscoveRx cAMP XS+ kit)
# APPLIED CONDITIONS: luminescent cAMP assay, read-out: Human TGR5 Lum. cAMP Activity (EC50)
pEC50: −log10 of the molar value.
QUANTITY KIND: pEC50

O=C(CCC1CCN(c2cc(N3CC[C@H]3C(=O)NCCc3ccc(C(F)(F)F)cc3)nc(C(F)(F)F)n2)CC1)NCS(=O)(=O)O [Compound 253]
> 7.00
COC(=O)c1ccc(S(=O)(=O)NCCOCCNC(=O)CCCC2CCN(c3cc(N4CC[C@H]4C(=O)NCCc4ccc(C#N)cc4)nc(C(F)(F)F)n3)CC2)cc1 [Compound 290]
6.00 to 7.00
O=C(O)CCNC(=O)NCCC1CCN(c2cc(N3C[C@@H](O)C[C@H]3C(=O)NCCc3ccc(C(F)(F)F)cc3)nc(C(F)(F)F)n2)CC1 [Compound 374]
> 7.00
N#Cc1ccc(CCNC(=O)[C@@H]2CCCN2c2cc(N3CCC(CCNC(=O)N[C@@H](CCCNC(=N)N)C(=O)O)CC3)nc(C(F)(F)F)n2)cc1 [Compound 83]
> 7.00
N#Cc1ccc(CCNC(=O)[C@@H]2CCCN2c2cc(Nc3ccncc3)nc(C(F)(F)F)n2)cc1 [Compound 14]
4.52 to 6.00

Now for another entry.
Prompt: Give the measured pEC50 of CN(C)CCN1CCN(c2cc(N3CCC[C@@H](C(=O)NCCc4ccc(C#N)cc4)C3)nc(C(F)(F)F)n2)CC1 [Compound 333] .
Completion: > 7.00
